tested on: Corn plants (Zea mays), Pioneer 3514; test: Herbicide mode-of-action recognition by 1H NMR of plant isolates and neural network analysis (Example 8); type: in vivo; details: small NN trained with first batch, tested on second batch; four herbicide groups and control
Could you please report measured output unit activation for the items listed next?

stdin: Fill blank: measured output unit activation of the compound CN(C)C(=O)Nc1ccc(Cl)c(Cl)c1 is ____.
stdout: ~1

stdin: Fill blank: measured output unit activation of the compound CCc1cnc(C2=NC(C)(C(C)C)C(=O)N2)c(C(=O)O)c1 (stereo not shown) is ____.
stdout: ~1

stdin: Fill blank: measured output unit activation of the compound O=C(O)CNCP(=O)(O)O [Glyphosate] is ____.
stdout: ~1

stdin: Fill blank: measured output unit activation of the compound CCC/C(=N\OCC)C1=C(O)CC(CC(C)SCC)CC1=O (stereo not shown) is ____.
stdout: ~1
